Origin of values: patent US20180094062A1

# STUDY SYSTEM: T1, recombinant Thermus thermophilus SlyD FKBP-Her3 (TtSlyD-FKBP-Her3)
# T1 construct: expressed in E. coli, the N-terminal methionine can be present or not; also called thermo SlyD-Her3; T.T.SlyD-Her3
# T1 chain: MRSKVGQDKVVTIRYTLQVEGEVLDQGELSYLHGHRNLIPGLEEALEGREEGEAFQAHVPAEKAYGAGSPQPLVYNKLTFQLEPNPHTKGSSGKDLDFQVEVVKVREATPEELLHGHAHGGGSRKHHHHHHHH
# PROTOCOL SUMMARY: SPR Biacore 4000 kinetic screening, antibody captured, analyte 150 nM, 25 C
t/2 diss values for the binders below.
MEASUREMENT NAME: t/2 diss (min)

>  <BINDER>
anti-HER3 antibody M-08-11 (antibody, V domains shown, mouse monoclonal antibody from hybridoma, tested as hybridoma supernatant or as antibody; also called M-011) VH: QAYLQQSGAELMRPGASVRMSCQASGYTFTSYTIHWLKQTPRQGLEWIGAIYPRNGDFSYNQKFKDKASLTVDTSSSTAYMHLSSLTSEDSAVYFCARTINYGDWFAYWGQGTLVTVSA VL: DIQMIQSPASLFVSEGETVIITCRASENIYSNLAWYHQKKGKSPQVLVYAAIKLADGVPLRFSGSGSGTQFSLKINSLQSEDFGSYYCQHFWGPPYTFGSGTNLEIK

>  <MEASUREMENT NAME>
t/2 diss

>  <VALUE REPORTED>
114

$$$$
>  <BINDER>
anti-HER3 antibody M-46-01 (antibody, V domains shown, mouse hybridoma clone) VH: QIQLQQSGPQLVRPGASVKISCKASGYSFTSYWMHWVKQRPGRGLEWIGMIDPSDGVTRLNQKFKDKATLTVDNSSSTAYMQLSSPTSEDSAVHYCARVDVLYWYFDVWGAGTTVTVSS VL: DIVLTQSPASLAVSLGQRATISCRASKSISISGYSYMHWYQQKAGQPPKLLIYLTSNLESGVPARFSGSGSGTDFTLNIHPVEEEDAATYYCHHSRELPFTFGSGTKLEIK

>  <MEASUREMENT NAME>
t/2 diss

>  <VALUE REPORTED>
41

$$$$
>  <BINDER>
anti-HER3 antibody M-17-02 (antibody, V domains shown, mouse hybridoma clone) VH: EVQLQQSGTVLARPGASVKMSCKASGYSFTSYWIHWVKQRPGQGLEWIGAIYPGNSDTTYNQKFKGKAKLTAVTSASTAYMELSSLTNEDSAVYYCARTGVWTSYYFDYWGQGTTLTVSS VL: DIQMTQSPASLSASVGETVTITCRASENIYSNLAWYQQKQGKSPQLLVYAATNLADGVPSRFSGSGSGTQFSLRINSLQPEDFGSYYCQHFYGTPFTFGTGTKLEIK

>  <MEASUREMENT NAME>
t/2 diss

>  <VALUE REPORTED>
59

$$$$
>  <BINDER>
anti-HER3 antibody M-43-01 (antibody, V domains shown, mouse hybridoma clone) VH: EVQLQQSGTVLARPGASVKMSCKASDYTFSNYWVHWVKQRPGQGLEWIGAIYPGNGDSTYYQKFKGKATLTAVTSTSTAYMDLSSLTNGDSAVYFCTRSGVGYNYYFDYWGQGTTLTVSS VL: DIQMTQSPASLSASVGETVTITCRASENIYSNLAWYQQKQGKSPQLLVYIATNLADGVPSRFSGSGSGTQFSLKINSLQPEDLGSYYCQHFYGTPFTFGTGTKLEIE

>  <MEASUREMENT NAME>
t/2 diss

>  <VALUE REPORTED>
73

$$$$
